Tested on: CAKI-1 renal
Experiment: NCI tumour cell line growth inhibition, 48 h
quantity-measured: log10(TGI) (log10 of the value in µM)
Please be aware that the numbers have been log10-transformed from TGI in µM.

Example molecules with recorded log10(TGI):
# molecule, log10(TGI)
measured = [
    ("CCCCCCCCCCCCCCCCP(=O)(O)OP(=O)(O)OCC1OC(n2cnc3c(N)ncnc32)C(O)C1O (centres undefined)", 1.81),
    ("CCOC(=O)CC[C@@H](NC(=O)c1ccc(N[C@@H]2c3cc4c(cc3C(c3cc(OC)c(O)c(OC)c3)C3C(=O)OC[C@@H]32)OCO4)cc1)C(=O)OCC (some centres undefined)", -1.27),
    ("OCCCCC#Cc1ccccc1C#Cc1ccccc1C(F)(F)F", 1.25),
    ("C=C1C(=O)OC2C1C(OC(=O)/C(C)=C/C)CC1(C)C(=O)CCC(=C)C21 (centres undefined)", 1.25),
    ("Nc1ccccc1C#C/C=C\\C#Cc1ccc(Cl)cc1Cl", 1.13),
    ("CCN(CC)Cc1cc(Nc2c3ccccc3nc3c2[nH]c2ccccc23)ccc1O", 0.62),
    ("CCOC(=O)Oc1c(OC)cc(C(=O)O[C@@H]2C[C@@H]3CN4CCc5c([nH]c6cc(OC)ccc56)[C@H]4C[C@@H]3[C@H](C(=O)OC)[C@H]2OC)cc1OC", 1.68),
    ("COc1cc2cc(C(=O)N3CC(CCl)c4ccc(NCCN)cc43)[nH]c2c(OC)c1OC (centres undefined)", 0.00),
]

Incoming: Item under review: c1ccc2sc(C3(N4CCCCC4)CCCC3)cc2c1 . Reported log10(TGI)?
Outgoing: 1.58

The measured values listed here are drawn from PubChem BioAssay (NCI).
